Tested on: P. acnes
Assay: Selective anti-bacterial test, count of germs after shaking culture with sample
Type: cell-based, Propionibacterium acnes
Settings: count of germs in control group without sample defined as 100%; shaking culture at 32° C. for one day
Provide the recorded P. acnes (%) count of germs for the entries that follow.
// note: answer is a bare numeric in %

What measured P. acnes (%) count of germs goes with CCNC(=O)CC[C@H](NCC1(O)OC[C@@H](O)C(O[C@H]2O[C@H](CO)[C@@H](O)[C@H](O)[C@H]2O)[C@@H]1O)C(=O)O (some centres unmarked) ?
9

What measured P. acnes (%) count of germs goes with OC[C@H]1O[C@H](O[C@H]2[C@H](O)[C@@H](O)C(O)O[C@@H]2CO)[C@H](O)[C@@H](O)[C@@H]1O (mixture of isomers) [Maltose, maltose, reference compound] ?
110

What measured P. acnes (%) count of germs goes with CCNC(=O)CC[C@H](NCC1(O)OC[C@@H](O)C(O[C@H]2O[C@H](CO)[C@@H](O)[C@H](O)[C@H]2O)[C@@H]1O)C(=O)OC (some centres unmarked) ?
27

What measured P. acnes (%) count of germs goes with CCNC(=O)CC[C@H](N)C(=O)O ?
50

What measured P. acnes (%) count of germs goes with CCN(CC)C(=O)CC[C@H](NCC1(O)OC[C@@H](O)C(O[C@H]2O[C@H](CO)[C@@H](O)[C@H](O)[C@H]2O)[C@@H]1O)C(=O)O (some centres unmarked) ?
15

Values were extracted from patent US8557793B2.
